Molecular target: T1, human RXFP1 (human, UniProt Q9HBX9 1-757)
T1 sequence (looked up): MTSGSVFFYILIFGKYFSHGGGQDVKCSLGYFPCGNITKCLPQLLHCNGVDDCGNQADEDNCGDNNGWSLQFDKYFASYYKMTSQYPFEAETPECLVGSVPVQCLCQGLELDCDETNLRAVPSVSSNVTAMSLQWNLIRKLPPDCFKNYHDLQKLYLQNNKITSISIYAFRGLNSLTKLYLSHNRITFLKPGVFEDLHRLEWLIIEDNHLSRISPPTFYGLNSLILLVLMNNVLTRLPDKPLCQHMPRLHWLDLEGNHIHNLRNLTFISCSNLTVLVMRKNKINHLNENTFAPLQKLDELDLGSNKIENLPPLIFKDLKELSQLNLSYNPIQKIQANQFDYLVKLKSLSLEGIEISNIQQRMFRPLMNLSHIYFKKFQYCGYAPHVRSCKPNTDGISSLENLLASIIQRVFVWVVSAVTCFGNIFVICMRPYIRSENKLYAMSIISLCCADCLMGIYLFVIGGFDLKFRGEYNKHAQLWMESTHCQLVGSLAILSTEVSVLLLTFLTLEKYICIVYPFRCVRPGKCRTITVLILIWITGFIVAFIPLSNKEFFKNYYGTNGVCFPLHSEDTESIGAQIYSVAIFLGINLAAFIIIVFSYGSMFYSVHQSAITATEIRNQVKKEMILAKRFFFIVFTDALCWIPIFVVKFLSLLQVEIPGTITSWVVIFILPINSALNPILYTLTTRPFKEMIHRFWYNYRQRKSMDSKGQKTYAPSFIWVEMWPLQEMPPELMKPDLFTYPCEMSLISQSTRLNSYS
Assay: cell-based or functional assay
Reported Metric: Potency (cAMP, transient hRXFP1 in HEK293) (µM)

{"columns": ["Binder", "Assay Value"],
 "data": [
  ["SEQ ID NO: 321 (Fc fusion) DKTHTCPPCPAPEAAGGPSVFLFPPKPKDTLMISRTPEVTCVVVDVSHEDPEVKFNWYVDGVEVHNAKTKPREEQYNSTYRVVSVLTVLHQDWLNGKEYKCKVSNKALAAPIEKTISKAKGQPREPQVYTLPPSRDELTKNQVSLTCLVKGFYPSDIAVEWESNGQPENNYKTTPPVLDSDGSFFLYSKLTVDKSRWQQGNVFSCSVLHEALHSHYTQKSLSLSPGKGGSDSWQEEVIKLCGRELVRAQIAICGKSTGGGEEGGGEEGGGRQLYSALANKCCHVGCTKRSLAQFC", 0.0102]
]}
